So I've got a bunch of compounds here, and I need their viability, T/C values.
- Tested on: 299254-011-R-J1-PDC complex spheroid viability;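 note: spheroids exposed to drugs for one week before measurement; percent viability relative to DMSO vehicle control taken as 100%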
- protocol-notes: Anticancer human tumor 299254-011-R-J1-PDC patient-derived melanoma cell line growth inhibition [POLQ]
- particulars: second compound 0.1 µM; first compound 1 µM; hits give low values
Reply numerically in %, unit not repeated.

### Prompt Fill in the blank: the reported viability, T/C of CCCS(=O)(=O)Nc1ccc(F)c(C(=O)c2c[nH]c3ncc(-c4ccc(Cl)cc4)cc23)c1F + Cc1cccc(N(C)C(=O)C2C(O)CCN2c2nc(C)cc(C(F)(F)F)c2C#N)c1 is ____.
### Response 114

### Prompt So what does the record say about viability, T/C for COc1cc(C2c3cc4c(cc3C(OC3OC5COC(C)OC5C(O)C3O)C3COC(=O)C23)OCO4)cc(OC)c1O (stereo not given) + Nc1ccc(C#CCN(C(=O)Cc2ncc(C(F)(F)F)cc2C(F)(F)F)c2ccc(F)cc2)nn1 ?
### Response 84.5

### Prompt Look up viability, T/C for this compound: O=C(Nc1ccc(O)c(NS(=O)(=O)c2ccc(F)cc2)c1)c1ccc(-c2ccccc2)cc1 + Cc1cccc(N(C)C(=O)C2C(O)CCN2c2nc(C)cc(C(F)(F)F)c2C#N)c1
### Response 107

### Prompt Which viability, T/C is listed for O=c1[nH]cc(F)c(=O)[nH]1 + Nc1ccc(C#CCN(C(=O)Cc2ncc(C(F)(F)F)cc2C(F)(F)F)c2ccc(F)cc2)nn1 ?
### Response 87

### Prompt Item COc1cccc2c1C(=O)c1c(O)c3c(c(O)c1C2=O)CC(O)(C(=O)CO)CC3OC1CC(N)C(O)C(C)O1 (stereo not given) + Nc1ccc(C#CCN(C(=O)Cc2ncc(C(F)(F)F)cc2C(F)(F)F)c2ccc(F)cc2)nn1 has what recorded viability, T/C?
### Response 54.5
